tested on: biotinyl-Phe-oxazolone; assay: self-aminoacylation, catalytic enhancement (BFO) (fold over background); higher = more active; k-Seq, kA / k0A0; sequences stand for … in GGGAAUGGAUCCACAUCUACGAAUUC…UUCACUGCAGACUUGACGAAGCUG
Fewer inactive variants are shown than the library holds.
# label = bin(measured self-aminoacylation), where bins are low range (below 2), mid range (2 to below 30), high range (30 or more)

Using the reported self-aminoacylation, which band applies to AGUCACCUAGGUCAUCGGGUG [Fam2.2 aminoacylation ribozyme variant] ?
high range

// query: AUUCACUUUGGUCAUCGGGUG [Fam2.2 aminoacylation ribozyme variant]
high range

// query: UAGUUUGCUAAUAGUCGCAAG [Fam3.1 aminoacylation ribozyme variant]
mid range

// query: AUUCACCUAGGUCCUCGGGCG [Fam2.2 aminoacylation ribozyme variant]
high range

// query: AUUCACCUGGGUUAUCGGGUG [Fam2.2 aminoacylation ribozyme variant]
high range

// query: CUACACUUCAAGCAAUCGGGC [Fam1B.1 aminoacylation ribozyme variant]
low range

// query: AUUACCCUGGUCAUCGAGUUU [Fam2.1 aminoacylation ribozyme variant]
mid range

// query: AGGUUUGCUAAUAGUCGCAAC [Fam3.1 aminoacylation ribozyme variant]
low range

// query: AAGUUAGCGAAUAGUCGCAAG [Fam3.1 aminoacylation ribozyme variant]
mid range

// query: AUUCAUCUAGGUCAUCCGGUG [Fam2.2 aminoacylation ribozyme variant]
high range

Shift focus to the following entry.
Using the reported self-aminoacylation, which band applies to AUUACCCUGGUAAUGGAGUGA [Fam2.1 aminoacylation ribozyme variant] ?
high range
